- EXPERIMENTAL PROTOCOL: Ratio of drug level in brain to blood in rat at 3 mg/kg, po
- Assay type: ADME, organism-based
- Parameters: dose 3 mg/kg, route oral
OBSERVATION TYPE: Kp

P. COCCO[C@H]1CC[C@](C)(N2CCC(n3c(=O)oc4ccc(C#N)cc43)CC2)CC1
Q. CCCO[C@H]1CC[C@](C)(N2CCC(n3c(=O)oc4ccc(S(C)(=O)=O)cc43)CC2)CC1
(Q) Could you tell me which of P and Q has the lower Kp reading? To answer, give the label that identifies your chosen option.
(A) Q

====

- MEASURED ON: Muscarinic acetylcholine receptor M5 (Homo sapiens)
- Sequence (P08912 whole entry): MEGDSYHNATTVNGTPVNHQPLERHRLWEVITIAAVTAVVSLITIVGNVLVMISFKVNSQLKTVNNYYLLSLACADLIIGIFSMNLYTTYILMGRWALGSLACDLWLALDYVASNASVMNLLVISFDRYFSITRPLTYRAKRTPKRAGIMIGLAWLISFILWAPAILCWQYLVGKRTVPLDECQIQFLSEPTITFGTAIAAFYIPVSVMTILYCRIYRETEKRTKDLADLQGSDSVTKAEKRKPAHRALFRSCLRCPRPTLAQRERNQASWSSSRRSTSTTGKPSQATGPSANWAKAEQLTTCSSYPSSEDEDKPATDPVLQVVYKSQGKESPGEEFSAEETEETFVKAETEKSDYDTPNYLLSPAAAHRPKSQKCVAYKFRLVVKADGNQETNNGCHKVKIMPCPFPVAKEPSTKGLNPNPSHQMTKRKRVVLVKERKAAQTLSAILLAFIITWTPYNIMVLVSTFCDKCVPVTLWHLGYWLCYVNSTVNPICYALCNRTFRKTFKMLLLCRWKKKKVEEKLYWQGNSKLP
- EXPERIMENTAL PROTOCOL: Agonist activity at human muscarinic M5 receptor expressed in CHO cells assessed as effect on calcium mobilization by FLIPR assay
OBSERVATION TYPE: EC50 (nM)

[[record]]
smiles = "CCO[C@H]1CC[C@](C)(N2CCC(n3c(=O)oc4ccc(C#N)cc43)CC2)CC1"
measured_on = "Muscarinic acetylcholine receptor M5 (Homo sapiens)"
observation_type = "EC50"
unit_string = "nM"
test_value = 398

[[record]]
smiles = "CCO[C@H]1CC[C@](C)(N2CCC(n3c(=O)oc4ccc(OC)cc43)CC2)CC1"
measured_on = "Muscarinic acetylcholine receptor M5 (Homo sapiens)"
observation_type = "EC50"
unit_string = "nM"
test_value = 158

[[record]]
smiles = "CCO[C@H]1CC[C@](C)(N2CCC(n3c(=O)oc4ccccc43)CC2)CC1"
measured_on = "Muscarinic acetylcholine receptor M5 (Homo sapiens)"
observation_type = "EC50"
unit_string = "nM"
test_value = 1000


a. COCCO[C@H]1CC[C@](C)(N2CCC(n3c(=O)oc4ccc(C#N)cc43)CC2)CC1
b. CCO[C@H]1CC[C@](C)(N2CCC(n3c(=O)oc4c(F)cc(C)cc43)CC2)CC1
c. CCO[C@H]1CC[C@](C)(N2CCC(n3c(=O)oc4ccc(S(=O)(=O)CC)cc43)CC2)CC1
d. CCO[C@H]1CC[C@](C)(N2CCC(n3c(=O)oc4cc(F)c(C)cc43)CC2)CC1
(Q) Sort these compounds on EC50 so the largest reading comes first. Ranked list of labels, please, in the requested order.
(A) c, a, b, d
(c: 5010 nM, a: 1000 nM, b: 158 nM, d: 50.1 nM)

A. CO[C@H]1CC[C@](C)(N2CCC(n3c(=O)oc4ccc(C)cc43)CC2)CC1
B. COCCO[C@H]1CC[C@](C)(N2CCC(n3c(=O)oc4ccc(C)cc43)CC2)CC1
(Q) Return label of the item with the larger EC50. Candidates: A , B . To answer, give the label that identifies your chosen option.
(A) A

====

- MEASURED ON: Muscarinic acetylcholine receptor M3 (Homo sapiens, UniProt P20309)
- Sequence (P20309 whole entry): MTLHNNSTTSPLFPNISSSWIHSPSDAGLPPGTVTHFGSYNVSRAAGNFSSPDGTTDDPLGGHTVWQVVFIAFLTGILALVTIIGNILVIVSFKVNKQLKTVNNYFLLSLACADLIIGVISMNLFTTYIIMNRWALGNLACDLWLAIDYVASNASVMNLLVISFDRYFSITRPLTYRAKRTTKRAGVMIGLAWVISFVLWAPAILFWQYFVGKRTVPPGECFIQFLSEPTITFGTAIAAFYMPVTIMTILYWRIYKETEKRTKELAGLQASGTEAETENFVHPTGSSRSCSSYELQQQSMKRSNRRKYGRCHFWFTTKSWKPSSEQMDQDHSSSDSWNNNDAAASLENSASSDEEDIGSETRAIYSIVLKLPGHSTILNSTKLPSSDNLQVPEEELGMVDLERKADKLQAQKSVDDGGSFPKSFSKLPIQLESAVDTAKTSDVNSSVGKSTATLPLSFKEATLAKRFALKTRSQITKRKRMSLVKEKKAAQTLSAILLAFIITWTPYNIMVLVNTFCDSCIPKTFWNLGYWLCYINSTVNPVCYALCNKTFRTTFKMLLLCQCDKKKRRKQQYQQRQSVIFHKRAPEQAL
- EXPERIMENTAL PROTOCOL: Agonist activity at human muscarinic M3 receptor expressed in CHO cells assessed as effect on calcium mobilization by FLIPR assay
- Format: functional, cell-based
pEC50: −log10 of the molar value.
OBSERVATION TYPE: pEC50

These recorded examples may help you get a feel for the data.
[[record]]
smiles = "COCCO[C@H]1CC[C@](C)(N2CCC(n3c(=O)oc4ccc(C#N)cc43)CC2)CC1"
observation_type = "pEC50"
test_value = 5.40

[[record]]
smiles = "Cc1cc2c(cc1F)[nH]c(=O)n2C1CCN(C2CCOCC2)CC1"
observation_type = "pEC50"
test_value = 5.60


a. CCO[C@H]1CC[C@](C)(N2CCC(n3c(=O)oc4ccc(C#N)cc43)CC2)CC1
b. CCO[C@H]1CC[C@](C)(N2CCC(n3c(=O)oc4ccc(S(C)(=O)=O)cc43)CC2)CC1
c. COCCO[C@H]1CC[C@](C)(N2CCC(n3c(=O)oc4ccc(C)cc43)CC2)CC1
(Q) In this exercise, place the 3 molecules in ascending sequence of their recorded pEC50. Ranked list of labels, please, in the requested order.
(A) a, b, c
